# STUDY TARGET: Autotaxin (Mus musculus)
# PROCEDURE DETAILS: Inhibition of mouse ATX expressed in one-cell stage zebra fish embryos assessed as rescue of cardia bifida phenotype at 10 uM incubated for 12 to 24 hrs post fertilization in presence of Ki16425 by whole mount in situ hybridization based microscopic analysis relative to control
MEASURE NAME: inhibition (%)
Return type: number; implicit unit %.

Data request: Param readout= inhibition; system= Autotaxin (Mus musculus); entry= Cc1nc2ccccn2c(=O)c1Cc1ccc(Cl)cc1 ; returns value.
Data returned: 91

Data request: Param readout= inhibition; system= Autotaxin (Mus musculus); entry= CCOC(=O)Cn1c(C)cc(=O)n2cc(-c3ccc(Cl)cc3)nc12 ; returns value.
Data returned: 93

Data request: Param readout= inhibition; system= Autotaxin (Mus musculus); entry= CN1CCN(C2=NC(=O)/C(=C/c3ccc(Cl)c(Cl)c3)S2)CC1 ; returns value.
Data returned: 96

Data request: Param readout= inhibition; system= Autotaxin (Mus musculus); entry= CCN1CCN(C2=NC(=O)/C(=C/c3ccc(Cl)cc3)S2)CC1 ; returns value.
Data returned: 95

Data request: Param readout= inhibition; system= Autotaxin (Mus musculus); entry= CCCCCCCN/C=C1\C(=O)N(c2ccc(F)cc2)C(=O)N=C1O ; returns value.
Data returned: 94

Data request: Param readout= inhibition; system= Autotaxin (Mus musculus); entry= O=C1N=C(N2CCN(Cc3cccc(B(O)O)c3)CC2)S/C1=C\c1ccc(Cl)c(Cl)c1 ; returns value.
Data returned: 98

###

# STUDY TARGET: Autotaxin (Mus musculus, UniProt Q9R1E6)
# PROCEDURE DETAILS: Inhibition of ATX in mouse plasma after 2 hrs by LC-MS/MS analysis
# Assay type: cell-free
# APPLIED CONDITIONS: read-out: IC50
# if measured IC50 < 40 nM: yes  # else: no

Data request: Check if IC50 falls below 40 nM for CCOC(=O)Cn1c(C)cc(=O)n2cc(-c3cccc(N)c3)nc12 .
Data returned: no

Data request: Check if IC50 falls below 40 nM for CCCCCn1c(C)cc(=O)n2cc(-c3ccc(Br)cc3)nc12 .
Data returned: yes

Data request: Check if IC50 falls below 40 nM for CC(=O)OCn1c(C)cc(=O)n2cc(-c3ccc(Cl)cc3)nc12 .
Data returned: yes

Data request: Check if IC50 falls below 40 nM for COc1cc(C)nc2nc(-c3ccc(Cl)cc3)cn12 .
Data returned: no

Data request: Check if IC50 falls below 40 nM for CCOC(=O)Cn1c(C)cc(=O)n2cc(-c3ccc(Cl)c(Cl)c3)nc12 .
Data returned: no

Data request: Check if IC50 falls below 40 nM for CCCCCCCCCn1c(C)cc(=O)n2cc(-c3ccc(Cl)cc3)nc12 .
Data returned: no

Data request: Check if IC50 falls below 40 nM for Cc1cc(=O)n2cc(-c3ccc(Cl)cc3)nc2n1CC(=O)OC(C)(C)C .
Data returned: no

Data request: Check if IC50 falls below 40 nM for CCCCCn1c(C)cc(=O)n2cc(-c3ccc(F)cc3)nc12 .
Data returned: no

Data request: Check if IC50 falls below 40 nM for CCCCCCCCn1c(C)cc(=O)n2cc(-c3ccc(Cl)cc3)nc12 .
Data returned: no

Data request: Check if IC50 falls below 40 nM for Cc1cc(=O)n2cc(-c3ccc(Cl)cc3)nc2n1Cc1ccccc1 .
Data returned: yes
